- assayed.system: CCR2 (Homo sapiens)
- Construct: (leukophoresis pack); host or cells: human peripheral blood mononuclear cells (PBMCs) from a normal human leukophoresis pack
- experiment.notes: hCCR2 (125-I hMCP-1) small molecule binding assay on human PBMCs
- details: 125I-MCP-1, human PBMCs, 1 hr preincubation; read-out: IC50 (nM) 1 hr preinc
measurement.label: IC50 (nM)
Use nM as the unit, but write only the number.

CO[C@@H]1COCC[C@@H]1N[C@@H]1CC[C@](CC(F)F)(C(=O)N2C[C@@H]3C[C@H]2CN3c2cc(C(F)(F)F)cnn2)C1; 6.35
CO[C@@H]1COCC[C@@H]1N[C@@H]1CC[C@](CC(F)(F)F)(C(=O)N2C[C@@H]3C[C@H]2CN3c2cccc(C(F)(F)F)n2)C1; 2.19
CO[C@@H]1COCC[C@@H]1N[C@@H]1CC[C@@](C(=O)N2C[C@@H]3C[C@H]2CN3c2ccnc(C(F)(F)F)c2)(C(C)C)C1; 5.8
CO[C@@H]1COCC[C@@H]1N[C@@H]1CC[C@@](C(=O)N2C[C@@H]3C[C@H]2CN3c2cc(C(F)(F)F)ccn2)(C(O)C(F)(F)F)C1 (stereo partly drawn); 1.1
CO[C@@H]1COCC[C@@H]1N[C@@H]1CC[C@](CC(F)F)(C(=O)N2C[C@@H]3C[C@H]2CN3c2nccc(C(F)(F)F)n2)C1; 2.04

Could you now look at the following compound, please?
Fill in the recorded IC50 for this compound, with CCR2 (Homo sapiens) as test system: `CO[C@@H]1COCC[C@@H]1N[C@@H]1CC[C@@](C(=O)N2C[C@@H]3C[C@H]2CN3c2cc(C(F)(F)F)ccn2)(C(C)C)C1`
2.44

###

- assayed.system: CCR2 (Homo sapiens, UniProt P41597)
- Construct: (leukophoresis pack); host or cells: human peripheral blood mononuclear cells (PBMCs) from a normal human leukophoresis pack
- Sequence (P41597 whole entry): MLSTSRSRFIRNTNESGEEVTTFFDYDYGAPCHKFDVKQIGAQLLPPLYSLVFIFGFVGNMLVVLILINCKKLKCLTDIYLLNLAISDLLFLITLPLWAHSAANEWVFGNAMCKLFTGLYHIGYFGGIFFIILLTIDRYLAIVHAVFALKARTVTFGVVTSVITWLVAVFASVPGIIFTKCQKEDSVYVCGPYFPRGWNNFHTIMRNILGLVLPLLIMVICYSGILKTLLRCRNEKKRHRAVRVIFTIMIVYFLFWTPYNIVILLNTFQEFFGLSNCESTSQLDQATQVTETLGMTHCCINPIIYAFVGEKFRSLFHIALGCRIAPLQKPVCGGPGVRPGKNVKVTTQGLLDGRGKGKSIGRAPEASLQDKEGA
- experiment.notes: hCCR2 (125-I hMCP-1) small molecule binding assay on human PBMCs
- details: 125I-MCP-1, human PBMCs, 30 min preincubation; read-out: IC50 (nM) 30 min preinc
measurement.label: log10 of IC50 (log10 of the value in nM)
// stored as log10 of IC50 expressed in nM

Please review the following examples before continuing.
CC[C@]1(C(=O)N2C[C@@H]3C[C@H]2CN3c2cncc(C(F)(F)F)n2)CC[C@@H](N[C@H]2CCOC[C@H]2OC)C1 [Example 4]; 0.60
CO[C@@H]1COCC[C@@H]1N[C@@H]1CC[C@@](C(=O)N2C[C@@H]3[C@H](F)[C@H]2CN3c2cc(C(F)(F)F)ccn2)(C(C)C)C1 [Example 67]; 0.53
CO[C@@H]1COCC[C@@H]1N[C@@H]1CC[C@@](C(=O)N2C[C@@H]3C[C@H]2CN3c2cc(C(F)(F)F)ccn2)(C(O)C(F)(F)F)C1 (stereo partly drawn) [Example 62]; 0.11

log10 of IC50 lookup needed for CO[C@@H]1COCC[C@@H]1N[C@@H]1CC[C@@](C(=O)N2C[C@@H]3C[C@H]2CN3c2nccc(C(F)(F)F)n2)(C2(O)CCC2)C1 [Example 47] , thanks.
0.79

log10 of IC50 lookup needed for CO[C@@H]1COCC[C@@H]1N[C@@H]1CC[C@](CC(F)(F)F)(C(=O)N2C[C@@H]3C[C@H]2CN3c2ccnc(C(F)(F)F)c2)C1 [Example 34] , thanks.
1.82

log10 of IC50 lookup needed for CO[C@@H]1COCC[C@@H]1N[C@@H]1CC[C@@](C(=O)N2C[C@@H]3C[C@H]2CN3c2cc(C(F)(F)F)cnn2)(C(C)C)C1 [Example 18] , thanks.
1.58

Values were extracted from patent US8946413B2.
